- study_system: BACE1 (Homo sapiens)
- Sequence (P56817 46-501, species assumed): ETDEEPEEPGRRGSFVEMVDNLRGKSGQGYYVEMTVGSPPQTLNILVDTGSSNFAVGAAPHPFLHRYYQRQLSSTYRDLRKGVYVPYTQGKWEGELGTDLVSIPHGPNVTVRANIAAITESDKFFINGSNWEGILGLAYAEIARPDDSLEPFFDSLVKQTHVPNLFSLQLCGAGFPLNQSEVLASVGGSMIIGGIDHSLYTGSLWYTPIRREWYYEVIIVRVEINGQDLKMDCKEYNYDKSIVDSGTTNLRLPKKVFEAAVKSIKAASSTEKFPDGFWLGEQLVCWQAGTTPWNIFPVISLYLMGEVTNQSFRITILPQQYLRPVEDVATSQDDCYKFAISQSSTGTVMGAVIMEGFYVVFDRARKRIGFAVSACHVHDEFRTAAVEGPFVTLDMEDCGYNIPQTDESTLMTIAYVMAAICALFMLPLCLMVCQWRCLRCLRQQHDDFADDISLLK
- assay_summary: In Vitro BACE Cell-based Assay (HEK cell assay): Aβ40 in conditioned medium of cells stably expressing Amyloid Precursor Protein, sandwich ELISA
- condition_notes: read-out: HEK cell assay
- Experimental: In Vitro BACE Cell-based Assay The cell-based assay measures inhibition or reduction of Aβ40 in conditioned medium of test compound treated cells expressing amyloid precursor protein. Cells stably expressing Amyloid Precursor Protein (APP) were plated at a density of 40K cells/well in 96 well plates (Costar). […] After 24 h of incubation with the test compounds the supernatant conditioned media was collected and the Aβ 40 levels were determined using a sandwich ELISA. […]
measure_name: IC50

Some compounds with recorded IC50:
1) Cc1ccc(-c2ccc3c(c2)[C@]2(COC(N)=N2)c2cc(OCC(C)(C)C)ccc2O3)cn1; 100 to 1000 nM
2) NC1=N[C@]2(CO1)c1cc(/C=C/C(=O)O)ccc1Oc1ccc(-c3cncnc3)cc12; > 5000 nM
3) CC(C)(C)CC(=O)c1ccc2c(c1)[C@@]1(CSC(N)=N1)c1cc(-c3cncnc3)ccc1O2; 1000 to 5000 nM

Read the next record carefully.
IC50 measured on NC1=N[C@]2(CO1)c1ccncc1Oc1ccc(-c3cccnc3)cc12 = 1000 to 5000 nM
